Sourced from patent US4110327A

Please provide measured MIC for the entries that follow.
System: Staphylococcus aureus
assay: MIC against clinical isolates
Assay type: cell-based
particulars: clinical isolate MS 8596; unit assumed
One number for each entry, in µg/mL.

Solved entries:
molecule	unitAbbrev	MIC
CCN1CCN(C(=O)NC(C(=O)NC2C(=O)N3C(C(=O)O)=C(COC(C)=O)CSC23)c2ccccc2)C(=O)C1=O (stereo not shown)	µg/mL	1.56
CC1(C)S[C@@H]2[C@H](NC(=O)C(c3ccccc3)S(=O)(=O)O)C(=O)N2[C@H]1C(=O)O (stereo partly shown) [Sodium Sulbenicillin, SodiumSulbenicillin, reference compound]	µg/mL	3.13
CC(=O)OCC1=C(C(=O)O)N2C(=O)[C@@H](NC(=O)[C@H](N)c3ccccc3)[C@H]2SC1 [Sodium Cephaloglycin, SodiumCephaloglycin, reference compound]	µg/mL	1.56
CCN1CCN(C(=O)NC(C(=O)NC2C(=O)N3C(C(=O)O)=C(CSc4nnnn4C)CSC23)c2ccccc2)C(=O)C1=O (stereo not shown)	µg/mL	1.56
CN1CCN(C(=O)N[C@@H](C(=O)N[C@@H]2C(=O)N3C(C(=O)[O-])=C(C[n+]4ccccc4)CS[C@H]23)c2ccccc2)C(=O)C1=O	µg/mL	1.56

**Query** Please list MIC recorded for the molecule CCCCCCCCN1CCN(C(=O)N[C@@H](C(=O)N[C@@H]2C(=O)N3[C@@H]2SC(C)(C)[C@@H]3C(=O)O)c2ccccc2)CC1=O
**Result** 1.57

----------
Test system: Pseudomonas aeruginosa
assay: MIC against clinical isolates
Format: cell-based
particulars: clinical isolate GN 1091; unit assumed
Give MIC for every item shown.
Give bare numbers, in µg/mL.

Worked examples, 5 compounds total:
compound	MIC, µg/mL
CCN1CCN(C(=O)N[C@@H](C(=O)N[C@@H]2C(=O)N3[C@@H]2SC(C)(C)[C@@H]3C(=O)O)c2ccccc2)CC1=O	12.5
CN1CCN(C(=O)NC(C(=O)NC2C(=O)N3C(C(=O)O)=C(CSc4nnnn4C)CSC23)c2ccccc2)C(=O)C1=O (single isomer, unassigned)	50
CCCCCN1CCN(C(=O)N[C@@H](C(=O)N[C@@H]2C(=O)N3[C@@H]2SC(C)(C)[C@@H]3C(=O)O)c2ccccc2)C(=O)C1=O (single isomer, unassigned)	12.5
CCCCCCCCN1CCN(C(=O)N[C@@H](C(=O)N[C@@H]2C(=O)N3[C@@H]2SC(C)(C)[C@@H]3C(=O)O)c2ccccc2)CC1=O	25
CCCCCCN1CCN(C(=O)N[C@@H](C(=O)N[C@@H]2C(=O)N3[C@@H]2SC(C)(C)[C@@H]3C(=O)O)c2ccccc2)C(=O)C1=O (single isomer, unassigned)	12.5

Batch: MIC for all items listed.
1. CCCCCCCCN1CCN(C(=O)N[C@@H](C(=O)N[C@@H]2C(=O)N3[C@@H]2SC(C)(C)[C@@H]3C(=O)O)c2ccccc2)C(=O)C1
2. CC1(C)S[C@@H]2[C@H](NC(=O)C(c3ccccc3)S(=O)(=O)O)C(=O)N2[C@H]1C(=O)O (some centres unmarked) [Sodium Sulbenicillin, SodiumSulbenicillin, reference compound]
3. CCCCCCCCN1CCN(C(=O)N[C@@H](C(=O)N[C@@H]2C(=O)N3[C@@H]2SC(C)(C)[C@@H]3C(=O)O)c2ccccc2)C(=O)C1=O (single isomer, unassigned)
4. CN1CCN(C(=O)N[C@@H](C(=O)N[C@@H]2C(=O)N3C(C(=O)[O-])=C(C[n+]4ccccc4)CS[C@H]23)c2ccccc2)C(=O)C1=O
5. Cc1nnc(SCC2=C(C(=O)O)N3C(=O)C(NC(=O)C(NC(=O)N4CCN(C)C(=O)C4=O)c4ccccc4)C3SC2)s1 (single isomer, unassigned)

**Result**
1: 12.5; 2: 50; 3: 12.5; 4: 12.5; 5: 100
